Molecular target: NUPR1 (Homo sapiens)
Construct: made in house
Sequence (O60356 1-82): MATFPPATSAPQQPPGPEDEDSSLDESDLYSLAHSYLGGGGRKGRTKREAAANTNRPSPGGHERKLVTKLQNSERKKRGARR
Experiment: Isothermal titration calorimetry (ITC) binding to NUPR1
Details: 25 °C, sodium phosphate 20 mM, pH 7.0, 2% DMSO
The following molecules are listed with their measured Ka values.
endpointLabel: Ka (M^–1 × 10^5)

* FC(F)(F)c1ccc2c(c1)N(CCCN1CCN(CCCN3CCCCC3)CC1)c1ccccc1S2 | 0.82
* CCN(CC)CCCN1CCN(CCCN2c3ccccc3Sc3ccc(C(F)(F)F)cc32)CC1 | 0.5
* FC(F)(F)c1ccc2c(c1)N(CCCN1CCN(CCN3CCOCC3)CC1)c1ccccc1S2 | 5.8
* FC(F)(F)c1ccc2c(c1)N(CCCN1CCN(CCCN3CCOCC3)CC1)c1ccccc1S2 | 1.0
* FC(F)(F)c1ccc2c(c1)N(CCCN1CCN(CCN3CCCC3)CC1)c1ccccc1S2 | 6.4
* CCN(CC)CCN1CCN(CCCN2c3ccccc3Sc3ccc(C(F)(F)F)cc32)CC1 | 3.1
* CN(C)CCCN1CCN(CCCN2c3ccccc3Sc3ccc(C(F)(F)F)cc32)CC1 | 4.9
* FC(F)(F)c1ccc2c(c1)N(CCCN1CCN(CCCN3CCCC3)CC1)c1ccccc1S2 | 0.85
* FC(F)(F)c1ccc2c(c1)N(CCCN1CCN(CCN3CCCCC3)CC1)c1ccccc1S2 | 4.7

---

Biological target: NUPR1 (Homo sapiens)
Construct: made in house
Experiment: Isothermal titration calorimetry (ITC) binding to NUPR1
Details: 25 °C, pH 7.0
endpointLabel: ΔG (kcal mol^–1)

• CN(C)CCCN1CCN(CCCN2c3ccccc3Sc3ccc(C(F)(F)F)cc32)CC1 = −7.8
• FC(F)(F)c1ccc2c(c1)N(CCCN1CCN(CCN3CCOCC3)CC1)c1ccccc1S2 = −7.9
• FC(F)(F)c1ccc2c(c1)N(CCCN1CCN(CCCN3CCOCC3)CC1)c1ccccc1S2 = −6.8
• FC(F)(F)c1ccc2c(c1)N(CCCN1CCN(CCCN3CCCCC3)CC1)c1ccccc1S2 = −6.7

---

System: PDAC115T cells
Experiment: Cell viability assay (PrestoBlue)
Assay type: cell-based
Conditions: Homo sapiens; PDAC115T (basal subtype), 72 h
endpointLabel: IC50 (µM)

• CCN(CC)CCN1CCN(CCCN2c3ccccc3Sc3ccc(C(F)(F)F)cc32)CC1 = 2.46
• CN(C)CCCN1CCN(CCCN2c3ccccc3Sc3ccc(C(F)(F)F)cc32)CC1 = 14.7
• FC(F)(F)c1ccc2c(c1)N(CCCN1CCN(CCN3CCCC3)CC1)c1ccccc1S2 = 2.91
• CCN(CC)CCCN1CCN(CCCN2c3ccccc3Sc3ccc(C(F)(F)F)cc32)CC1 = 2.5

---

Tested on: PDAC089T cells
Assay: Cell viability assay (PrestoBlue)
Assay type: cell-based
Settings: Homo sapiens; PDAC089T (derived from a liver metastasis), 72 h
pIC50: −log10 of the molar value.
endpointLabel: pIC50

- FC(F)(F)c1ccc2c(c1)N(CCCN1CCN(CCCN3CCCCC3)CC1)c1ccccc1S2: 5.21
- CN(C)CCCN1CCN(CCCN2c3ccccc3Sc3ccc(C(F)(F)F)cc32)CC1: 4.65
- FC(F)(F)c1ccc2c(c1)N(CCCN1CCN(CCCN3CCCC3)CC1)c1ccccc1S2: 5.08
